Collected pIC50 values appear next to each entry.
target_of_assay: AHR (Homo sapiens)
Sequence (P35869 11-848): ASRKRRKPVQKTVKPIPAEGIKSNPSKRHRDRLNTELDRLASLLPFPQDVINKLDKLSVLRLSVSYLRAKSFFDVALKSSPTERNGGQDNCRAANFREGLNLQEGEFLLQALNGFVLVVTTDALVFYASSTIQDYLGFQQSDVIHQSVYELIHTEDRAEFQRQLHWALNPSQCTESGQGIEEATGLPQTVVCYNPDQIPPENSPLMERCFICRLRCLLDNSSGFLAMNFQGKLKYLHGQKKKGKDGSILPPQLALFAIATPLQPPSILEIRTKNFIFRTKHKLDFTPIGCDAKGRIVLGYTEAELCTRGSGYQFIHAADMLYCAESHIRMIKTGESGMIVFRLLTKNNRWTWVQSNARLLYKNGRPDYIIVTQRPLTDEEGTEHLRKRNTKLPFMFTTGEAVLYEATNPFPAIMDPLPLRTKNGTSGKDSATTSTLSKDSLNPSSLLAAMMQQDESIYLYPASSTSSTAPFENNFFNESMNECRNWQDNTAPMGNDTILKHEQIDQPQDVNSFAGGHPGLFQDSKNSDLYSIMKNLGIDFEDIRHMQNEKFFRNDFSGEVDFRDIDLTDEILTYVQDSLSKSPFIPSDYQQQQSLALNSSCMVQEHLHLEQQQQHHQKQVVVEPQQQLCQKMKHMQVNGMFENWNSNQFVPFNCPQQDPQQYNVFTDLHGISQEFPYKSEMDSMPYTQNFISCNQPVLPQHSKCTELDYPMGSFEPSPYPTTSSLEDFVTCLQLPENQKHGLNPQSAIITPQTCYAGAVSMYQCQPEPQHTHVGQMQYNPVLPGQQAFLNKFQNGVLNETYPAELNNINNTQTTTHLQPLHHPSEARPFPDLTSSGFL
assay_protocol: In vitro assay 2: agonism in human cell line (transactivation assay, U87 cells, DRE firefly luciferase reporter)
Assay type: cell-based
Design: host or cells: U87 glioblastoma cells, stably transfected with DRE firefly luciferase and renilla reporter constructs
experimental_context: no kynurenic acid, 20 hours, read-out: Assay 2: AHR-luc Hum Agonism IC50
pIC50: −log10 of the molar value.
measured_metric: pIC50

>  <compound>
C[C@H](NC(=O)c1cc(-c2ccc(CF)cc2)nn(-c2cnn(C)c2)c1=O)C(C)(C)O

>  <measured_metric>
pIC50

>  <value_observed>
< 4.70

$$$$
>  <compound>
O=C(NC(CO)C(F)(F)F)c1cc(-c2ccc(OC(F)(F)F)cc2)nn(-c2cccnc2)c1=O (stereo not shown)

>  <measured_metric>
pIC50

>  <value_observed>
< 4.70

$$$$
>  <compound>
O=C(N[C@H](CO)C1CC1)c1cc(-c2ccc(C(F)(F)F)cc2)nn(-c2cnsc2)c1=O

>  <measured_metric>
pIC50

>  <value_observed>
< 4.70

$$$$
>  <compound>
Cn1cc(-n2nc(-c3ccc(OC(F)(F)F)cc3)cc(C(=O)N[C@H](CO)C(F)(F)F)c2=O)cn1

>  <measured_metric>
pIC50

>  <value_observed>
< 4.70

$$$$
>  <compound>
O=C(NCC(O)C(F)F)c1cc(-c2ccc(Cl)cc2)nn(-c2cccnc2)c1=O (single isomer, unassigned; (-)) [Example 87]

>  <measured_metric>
pIC50

>  <value_observed>
< 4.70

$$$$
>  <compound>
CC(C)[C@@H](CO)NC(=O)c1cc(-c2ccc(C(F)(F)F)nc2)nn(-c2cncc(F)c2)c1=O

>  <measured_metric>
pIC50

>  <value_observed>
< 4.70

$$$$
>  <compound>
O=C(NC(CO)C(F)(F)F)c1cc(-c2ccc(C(F)(F)F)cc2)nn(-c2cccnc2)c1=O (racemic)

>  <measured_metric>
pIC50

>  <value_observed>
< 4.70

$$$$
>  <compound>
Cn1cc(-n2nc(-c3ccc(C(F)(F)F)cc3)cc(C(=O)NC[C@H](O)C(F)(F)F)c2=O)cn1

>  <measured_metric>
pIC50

>  <value_observed>
< 4.70

$$$$
>  <compound>
Cn1cc(-n2nc(-c3ccc(C(F)(F)F)cc3)cc(C(=O)NC[C@H](O)C(F)F)c2=O)cn1

>  <measured_metric>
pIC50

>  <value_observed>
< 4.70

$$$$
>  <compound>
O=C(N[C@H]1COC[C@H]1O)c1cc(-c2ccc(C(F)F)nc2)nn(-c2cccnc2)c1=O (relative stereo) [Example 182]

>  <measured_metric>
pIC50

>  <value_observed>
< 4.70

$$$$
>  <compound>
O=C(N[C@@H]1CC[C@@H]1O)c1cc(-c2ccc(Cl)cc2)nn(-c2cccnc2)c1=O (single isomer, unassigned) [Example 281]

>  <measured_metric>
pIC50

>  <value_observed>
< 4.70

$$$$
>  <compound>
O=C(NC[C@H](O)C(F)F)c1cc(-c2ccc(OC(F)(F)F)cc2)nn(-c2cccnc2)c1=O

>  <measured_metric>
pIC50

>  <value_observed>
< 4.70

$$$$
>  <compound>
O=C(N[C@H]1COC[C@H]1O)c1cc(-c2ccc(C(F)F)nc2)nn(-c2cccnc2)c1=O (single isomer, unassigned) [Example 183]

>  <measured_metric>
pIC50

>  <value_observed>
< 4.70

$$$$
>  <compound>
Cn1cc(-n2nc(-c3ccc(OC(F)(F)F)cc3)cc(C(=O)N[C@@H]3COC[C@H]3O)c2=O)cn1 (racemic) [Example 63]

>  <measured_metric>
pIC50

>  <value_observed>
< 4.70

$$$$
>  <compound>
O=C(NCC(O)C(F)F)c1cc(-c2ccc(Cl)cc2)nn(-c2cccnc2)c1=O (racemic) [Example 79]

>  <measured_metric>
pIC50

>  <value_observed>
< 4.70

$$$$
>  <compound>
C[C@@H](NC(=O)c1cc(-c2ccc(Cl)cc2)nn(-c2cn[nH]c2)c1=O)C(C)(C)O

>  <measured_metric>
pIC50

>  <value_observed>
< 4.70

$$$$
>  <compound>
Cn1cc(-n2nc(-c3ccc(OC(F)(F)F)cc3)cc(C(=O)N[C@@H]3COC[C@@H]3O)c2=O)cn1 (racemic) [Example 55]

>  <measured_metric>
pIC50

>  <value_observed>
< 4.70

$$$$
>  <compound>
C[C@H](NC(=O)c1cc(-c2ccc(C(F)(F)F)cc2)nn(-c2cccnc2)c1=O)C(C)(C)O

>  <measured_metric>
pIC50

>  <value_observed>
< 4.70

$$$$
>  <compound>
O=C(NCC(O)C(F)(F)F)c1cc(-c2ccc(Cl)cc2)nn(-c2cccnc2)c1=O (single isomer, unassigned; (-)) [Example 89]

>  <measured_metric>
pIC50

>  <value_observed>
< 4.70

$$$$
>  <compound>
O=C(N[C@H]1COC[C@H]1O)c1cc(-c2ccc(Cl)cc2)nn(-c2cccnc2)c1=O (racemic) [Example 171]

>  <measured_metric>
pIC50

>  <value_observed>
< 4.70

$$$$
>  <compound>
O=C(NC(CO)C1CC1)c1cc(-c2ccc(C(F)(F)F)cc2)nn(-c2cccnc2)c1=O (racemic)

>  <measured_metric>
pIC50

>  <value_observed>
< 4.70

$$$$
>  <compound>
C[C@@H](CO)NC(=O)c1cc(-c2ccc(C(F)F)nc2)nn(-c2cccnc2)c1=O

>  <measured_metric>
pIC50

>  <value_observed>
< 4.70

$$$$
>  <compound>
Cn1cc(-n2nc(-c3ccc(Cl)cc3)cc(C(=O)NCC(O)C(F)(F)F)c2=O)cn1 (single isomer, unassigned; (-)) [Example 19]

>  <measured_metric>
pIC50

>  <value_observed>
< 4.70

$$$$
>  <compound>
O=C(N[C@H](CO)C(F)(F)F)c1cc(-c2ccc(Cl)cc2)nn(-c2cnn(C(F)F)c2)c1=O

>  <measured_metric>
pIC50

>  <value_observed>
< 4.70

$$$$
>  <compound>
Cn1cc(-n2nc(-c3ccc(Cl)cc3)cc(C(=O)N[C@H](CO)C(F)(F)F)c2=O)cn1

>  <measured_metric>
pIC50

>  <value_observed>
< 4.70

$$$$
>  <compound>
C[C@@H](CO)NC(=O)c1cc(-c2ccc(C(F)(F)F)cc2)nn(-c2cnn(C(F)F)c2)c1=O

>  <measured_metric>
pIC50

>  <value_observed>
< 4.70

$$$$
>  <compound>
O=C(N[C@H]1CCCC(F)(F)[C@@H]1O)c1cc(-c2ccc(Cl)cc2)nn(-c2cccnc2)c1=O (racemic) [Example 143]

>  <measured_metric>
pIC50

>  <value_observed>
< 4.70

$$$$
>  <compound>
O=C(N[C@H]1CCC[C@H]1O)c1cc(-c2ccc(Cl)cc2)nn(-c2cncc(F)c2)c1=O

>  <measured_metric>
pIC50

>  <value_observed>
< 4.70

$$$$
